Data provenance is the supplement of paper PMC10567573.

# protein stability index per entry
Protocol Summary: protein stability index of a GFP-peptide fusion (GPS, HEK-293T) (PSI 1-6); higher = more stable;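 note: 24-mer peptide tiles fused after GFP, lentivirally expressed, FACS-sorted into six equal bins by GFP/DsRed ratio, decoded by Illumina sequencing, PSI is the read-weighted mean bin number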
Details: treatment: DMSO; c terminus: a fixed tail appended
# print the numeric value only

Please review the entries below; each comes with its answer.
> print(dat)
                      query.sequence  value.observed
1  YEAIAKHNQVEAAWLEGRIRQEFD [TRIM35]             3.9
2  VVGNWQYFFPVIFSKASSSLQLVF [MAGEA3]            3.28
3    IVWSLAFGSSVPEKQSRCVNIEWH [WSB1]            2.92
4   TKLLSGSYDCTVKLWDPVDGSVVR [WDR88]             3.1
5  KKNWRRVYKSLLLLAYLIRNGSER [CLINT1]            2.35
6    VAGEFSEPVTLETPAFMFRLDAST [FSD1]             3.1

With those in mind, consider the next sequence.
Exercise: Give the measured protein stability index of LTVLPKLQARERGEEQVELSTIEE [C2CD2L] .
Key: 5.14
